Target: GlcNAc(a1-4)Gal(b1-3)GlcNAc
Assay: glycan array binding signal (z-score within array); higher = stronger binding
Settings: glycan notation: IUPAC condensed, linker removed
Many of the other results were omitted from the sample, so the strongest signals are more common in it than they were.

>  <binder>
LysMD3 (Homo sapiens), Q7Z3D4 (protein) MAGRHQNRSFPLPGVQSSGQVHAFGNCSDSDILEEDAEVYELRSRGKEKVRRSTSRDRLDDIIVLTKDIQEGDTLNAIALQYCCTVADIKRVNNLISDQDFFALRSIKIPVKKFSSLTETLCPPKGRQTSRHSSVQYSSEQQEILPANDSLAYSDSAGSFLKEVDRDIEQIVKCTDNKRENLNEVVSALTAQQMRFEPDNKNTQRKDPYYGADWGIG

>  <glycan array binding signal (z-score)>
0.45

$$$$
>  <binder>
NKR-PIC (Mus musculus) (protein) GTGQKPSREKCCVFIQENLNKTTDCSVNLECPQDWLLHRDKCFHVSQVSNTWEEGQADCGRKGATLLLIQDQEELRFLLDSIKEKYNSFWIGLRFTLPDMNWKWINGTTFNSDVLKITGVTENGSCASILGDKVTPESCASDNRWICQKELNHETPSNDSGT

>  <glycan array binding signal (z-score)>
1.3

$$$$
>  <binder>
CTLX (Homo sapiens), Q6UXS0 (protein) SLCPLFWMEFKGHCYRFFPLNKTWAEADLYCSEFSVGRKSAKLASIHSWEENVFVYDLVNSCVPGIPADVWTGLHDHRQEGQFEWTDGSSYDYSYWDGSQPDDGVHADPEEEDCVQIWYRPTSALRSWNDNTCSRKFPFVCKIPSLTIH

>  <glycan array binding signal (z-score)>
3.54

$$$$
